Origin of measurements: patent EP0618222A2

# Assay Method Text: Blood level in mice after administration (HPLC of blood/plasma)
# Type: in vivo, Mäuse
# Study Conditions: po; mouse blood, peroral 120 mg/kg, 30 min after administration; read-out: Konzentration
Assay Endpoint: concentration at 0.5 h (µM)
Give the value in µM but do not write µM after it.

Measured concentration at 0.5 h, COc1ccc(C[C@H](C[C@H](O)[C@H](Cc2ccccc2)NC(=O)OC(C)(C)C)C(=O)N[C@H](C(=O)N[C@@H](Cc2ccccc2)C(=O)N2CCOCC2)C(C)C)cc1 : 10.8
